Data credit: patent US20260265403A1

# system.under.test: T1, Human CD24 (human, UniProt P25063 27-59, limits assumed)
# T1 chain (looked up): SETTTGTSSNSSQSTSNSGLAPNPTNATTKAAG
# run.description: affinity ranking; antibody as ligand, Human CD24 as analyte
Field: koff. Provide a value for each of the binders that follow.
Could you write the number and then its unit?

Use the examples below as a reference point.
Query: koff; subject: VH4 + VL2 (humanized 4451) (antibody, V domains shown, IgG expressed in HEK293) VH: QVQLVQSGAEVKKPGASVKVSCKASGYDFTGYHMNWVKQAPGQGLEWIGEINPITSDKTFNQKFKSRATMTVDRSISTAYMELSRLRSDDTAVYYCARRDYGTSLDYWGQGTTVTVSS VL: DIQLTQSPSFLSASVGDRVTITCRASKSISKYLAWYQQKPGKAPRLLIYAGSTLHSGVPSRFRGSGSGTEFTLTISSLQPEDFATYYCQQHNEYPITFGQGTKLEIK
0.0115 s⁻¹

Param item = VH1 + VL1 (humanized 4451) (antibody, V domains shown, IgG expressed in HEK293) VH: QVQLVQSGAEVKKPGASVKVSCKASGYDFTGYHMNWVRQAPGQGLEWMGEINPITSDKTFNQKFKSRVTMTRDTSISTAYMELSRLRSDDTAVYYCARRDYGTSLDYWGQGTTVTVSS VL: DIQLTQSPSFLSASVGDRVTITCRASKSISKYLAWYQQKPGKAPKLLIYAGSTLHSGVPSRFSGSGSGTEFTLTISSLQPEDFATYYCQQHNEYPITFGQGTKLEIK ; retrieve measured koff.
0.0169 s⁻¹

Using the record for VH3 + VL2 (humanized 4451) (antibody, V domains shown, IgG expressed in HEK293) VH: QVQLVQSGAEVKKPGASVKVSCKASGYDFTGYHMNWVRQAPGQGLEWIGEINPITSDKTFNQKFKSRATMTVDTSISTAYMELSRLRSDDTAVYYCARRDYGTSLDYWGQGTTVTVSS VL: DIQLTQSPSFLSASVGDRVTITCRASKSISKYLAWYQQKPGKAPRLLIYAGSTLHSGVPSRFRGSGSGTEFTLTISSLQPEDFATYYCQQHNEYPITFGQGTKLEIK , report its koff.
0.0262 s⁻¹

Which koff value is on record for VH2 + VL3 (humanized 4451) (antibody, V domains shown, IgG expressed in HEK293) VH: QVQLVQSGAEVKKPGASVKVSCKASGYDFTGYHMNWVRQAPGQGLEWIGEINPITSDKTFNQKFKSRVTMTVDTSISTAYMELSRLRSDDTAVYYCARRDYGTSLDYWGQGTTVTVSS VL: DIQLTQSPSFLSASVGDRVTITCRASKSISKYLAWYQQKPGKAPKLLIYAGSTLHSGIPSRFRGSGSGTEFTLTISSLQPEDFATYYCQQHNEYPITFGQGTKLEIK ?
0.023 s⁻¹

Endpoint output: koff of VH2 + VL1 (humanized 4451) (antibody, V domains shown, IgG expressed in HEK293) VH: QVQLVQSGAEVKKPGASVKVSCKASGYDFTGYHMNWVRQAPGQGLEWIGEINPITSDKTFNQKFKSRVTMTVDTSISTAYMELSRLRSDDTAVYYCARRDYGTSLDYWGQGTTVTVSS VL: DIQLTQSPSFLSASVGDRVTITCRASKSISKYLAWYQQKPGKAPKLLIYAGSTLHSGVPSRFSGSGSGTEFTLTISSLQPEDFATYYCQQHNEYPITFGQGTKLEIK . Value?
0.0264 s⁻¹

Next up:
Can you look up the measured koff of VH3 + VL4 (humanized 4451) (antibody, V domains shown, IgG expressed in HEK293) VH: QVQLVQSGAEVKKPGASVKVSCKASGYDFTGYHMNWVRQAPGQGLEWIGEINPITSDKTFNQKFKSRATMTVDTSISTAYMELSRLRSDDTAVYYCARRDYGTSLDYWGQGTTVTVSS VL: DIQLTQSPSFLSASVGDRVTIYCRASKSISKYLAWYQQKPGKAPRLLIYAGSTLHSGIPSRFRGSGSGTEFTLTISSLQPEDFATYYCQQHNEYPITFGQGTKLEIK for me?
0.0163 s⁻¹
